Molecular target: Lp-PLA2 in human plasma (Homo sapiens)
Construct: from tissue; host or cells: pooled human plasma
Sequence (Q13093 22-441): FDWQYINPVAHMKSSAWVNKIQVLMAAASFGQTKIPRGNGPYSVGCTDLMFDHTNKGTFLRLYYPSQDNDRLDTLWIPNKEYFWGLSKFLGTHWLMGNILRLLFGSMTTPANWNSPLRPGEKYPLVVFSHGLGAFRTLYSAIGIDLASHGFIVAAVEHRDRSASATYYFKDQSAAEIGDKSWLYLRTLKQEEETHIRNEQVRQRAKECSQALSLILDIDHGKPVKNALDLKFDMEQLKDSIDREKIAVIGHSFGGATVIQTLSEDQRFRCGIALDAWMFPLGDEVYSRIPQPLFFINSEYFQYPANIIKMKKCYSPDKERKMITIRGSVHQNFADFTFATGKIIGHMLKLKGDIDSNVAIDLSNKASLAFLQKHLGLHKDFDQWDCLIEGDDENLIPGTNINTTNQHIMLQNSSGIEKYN
Test: (3a) Lp-PLA2 human plasma Thio-PAF assay
Type: biochemical
Conditions: (3a) Thio-PAF assay, pooled human plasma; Examples 1-265 and 413-430 were tested here; read-out: pIC50 in the Lp-PLA2 human plasma assay (converted)

COMPOUND	IC50
CCCn1cc(Oc2c(F)cc(COc3cc4n(c(=O)n3)C[C@H]3COCCN43)cc2F)cn1 [Example E112]	≤ 0.1 µM
N#Cc1ccc(Oc2ccc(COc3cc4n(c(=O)n3)CC3CCCCN43)cc2C#N)cc1Cl (stereo not shown) [Example E20]	≤ 0.1 µM
Cn1cc(Oc2c(F)cc(COc3cc4n(c(=O)n3)C[C@H]3COCN43)cc2F)cn1 [Example E143]	≤ 10 µM
O=c1nc(OCc2ccc(Oc3ccc(C(F)(F)F)nc3)c(F)c2)cc2n1CC1CCCCN21 (stereo not shown) [Example E22]	≤ 10 µM

###

Target: recombinant human Lp-PLA2 (Homo sapiens, UniProt Q13093)
Experiment: (1a) PED6 assay, recombinant human Lp-PLA2 (rhLp-PLA2)
Format: biochemical
Conditions: Examples 1-167 and 413-430 were tested here, one experiment or average of multiple experiments, read-out: rhLp-PLA2 (pIC50) (converted)
Readings of IC50 for the listed molecules
METRIC_NAME: IC50

MOLECULE	METRIC_NAME	MEAS_VALUE
O=c1nc(OCc2cc(F)c(Oc3cnn(C(F)(F)F)c3)c(F)c2)cc2n1C[C@H]1COCN21	IC50	≤ 1 nM
Cc1ccc(COc2cc3n(c(=O)n2)CC2CCCCN32)cc1 (centres unmarked)	IC50	≤ 10000 nM
N#Cc1cc(F)cc(COc2cc3n(c(=O)n2)CC2CCCCN32)c1 (centres unmarked)	IC50	≤ 100 nM
O=c1nc(OCc2cccc(F)c2)cc2n1C[C@H]1COCCN21	IC50	10 nM
CN1c2cc(OCc3cc(F)c(F)cc3F)nc(=O)n2CC12CCCC2	IC50	≤ 100 nM
O=c1nc(OCc2cc(F)c(CCCF)c(F)c2)cc2n1CC1CCCN21 (centres unmarked)	IC50	≤ 100 nM
N#Cc1ccc(Oc2ccc(COc3cc4n(c(=O)n3)CC3CCCCN43)cc2C#N)cc1Cl (centres unmarked)	IC50	≤ 1 nM
O=c1nc(OCc2ccc(Oc3ccc(C(F)(F)F)nc3)c(F)c2)cc2n1CC1CCCCN21 (centres unmarked) [Example E48]	IC50	≤ 1 nM

###

Molecular target: Lp-PLA2 in human plasma (Homo sapiens, UniProt Q13093)
Construct: from tissue; host or cells: pooled human plasma
Sequence (Q13093 22-441): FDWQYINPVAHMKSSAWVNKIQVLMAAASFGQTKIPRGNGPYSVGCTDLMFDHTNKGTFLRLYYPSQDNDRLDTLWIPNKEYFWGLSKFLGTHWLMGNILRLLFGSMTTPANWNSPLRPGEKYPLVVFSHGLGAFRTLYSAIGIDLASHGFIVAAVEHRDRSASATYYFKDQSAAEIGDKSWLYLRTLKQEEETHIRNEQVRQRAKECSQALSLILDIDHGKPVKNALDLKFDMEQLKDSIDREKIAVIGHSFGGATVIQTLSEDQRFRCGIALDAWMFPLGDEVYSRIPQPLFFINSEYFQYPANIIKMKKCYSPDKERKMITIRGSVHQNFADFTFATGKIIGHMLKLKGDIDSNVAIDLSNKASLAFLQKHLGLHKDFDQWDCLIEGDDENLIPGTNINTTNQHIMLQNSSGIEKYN
Test: (3a) Lp-PLA2 human plasma Thio-PAF assay
Format: biochemical
Conditions: (3a) Thio-PAF assay, pooled human plasma; Examples 1-265 and 413-430 were tested here; read-out: pIC50 in the Lp-PLA2 human plasma assay (converted)
Description: (3) Lipoprotein-Associated Phospholipase A2 (Lp-PLA2) Human Plasma Assay The human plasma assay utilizes a thioester analog of PAF (phosphatidylcholine), where hydrolysis yields to the formation of a phospholipid containing a free thiol group. The amount of thiol is quantitated continuously by reacting with CPM (7-diethylamino-3-(4′-maleimidylphenyl)-4-methylcoumarin), a maleimide which increases in fluoresence after Michael addition of thiols. […]

MOLECULE	IC50
Cc1ccc(Oc2c(F)cc(COc3cc4n(c(=O)n3)C[C@@H]3COCCN43)cc2F)cn1 [Example E118]	≤ 0.1 µM
Cn1cc(Oc2c(F)cc(COc3cc4n(c(=O)n3)CC3CCCN43)cc2F)cn1 (centres unmarked) [Example E63]	≤ 10 µM
O=c1nc(OCc2cc(F)cc(F)c2)cc2n1CC1CCCCN21 (centres unmarked) [Example E3]	≤ 10 µM
O=c1nc(OCc2cc(F)c(OC3(CCF)CC3)c(F)c2)cc2n1C[C@H]1COCN21 [Example E197]	≤ 10 µM
O=c1nc(OCc2cc(F)c(Oc3cccc(C(F)(F)F)c3)c(F)c2)cc2n1CC1CCCN21 (centres unmarked) [Example E81]	≤ 0.1 µM
CN1c2cc(OCc3cccc(F)c3F)nc(=O)n2CC12CCCC2 [Example 426]	≤ 0.1 µM
O=c1nc(OCc2cc(F)c(Oc3ccc(C(F)(F)F)nc3)c(F)c2)cc2n1C[C@@H]1CCCN21 [Example E80]	≤ 10 µM
O=c1nc(OCc2cc(F)cc(F)c2)cc2n1CC1OCCN21 (centres unmarked) [Example E184]	≤ 10 µM

###

Readings of IC50 for the listed compounds
Molecular target: Lp-PLA2 in human plasma (Homo sapiens)
Construct: from tissue; host or cells: pooled human plasma
Sequence (Q13093 22-441): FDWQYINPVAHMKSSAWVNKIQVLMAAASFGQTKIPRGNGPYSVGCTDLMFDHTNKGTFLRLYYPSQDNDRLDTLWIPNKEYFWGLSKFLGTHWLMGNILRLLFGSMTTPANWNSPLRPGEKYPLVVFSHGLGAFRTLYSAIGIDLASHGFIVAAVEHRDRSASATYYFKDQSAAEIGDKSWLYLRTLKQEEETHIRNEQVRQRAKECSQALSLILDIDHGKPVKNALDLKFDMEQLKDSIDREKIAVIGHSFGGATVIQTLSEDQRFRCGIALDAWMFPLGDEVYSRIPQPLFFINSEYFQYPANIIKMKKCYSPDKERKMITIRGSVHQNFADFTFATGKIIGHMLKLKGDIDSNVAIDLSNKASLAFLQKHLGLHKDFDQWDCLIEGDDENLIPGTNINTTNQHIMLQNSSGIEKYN
Assay: (3a) Lp-PLA2 human plasma Thio-PAF assay
Format: biochemical
Settings: (3a) Thio-PAF assay, pooled human plasma; Examples 1-265 and 413-430 were tested here; read-out: pIC50 in the Lp-PLA2 human plasma assay (converted)

COMPOUND	IC50
O=c1nc(OCc2cc(F)c(OC3CN(CCC(F)(F)F)C3)c(F)c2)cc2n1C[C@@H]1CCCN21 [Example E97]	≤ 10 µM
O=c1nc(OCc2ccc(Oc3ccc(F)c(C(F)(F)F)c3)nc2)cc2n1CC1CCCN21 (centres unmarked) [Example E82]	≤ 10 µM
O=c1nc(OCc2cc(F)c(F)c(F)c2)cc2n1CC1CCCN21 (centres unmarked) [Example E89]	≤ 10 µM
CN1c2cc(OCc3cccc(F)c3F)nc(=O)n2CC12CCCCC2 [Example 425]	≤ 10 µM
O=c1nc(OCc2cccc(F)c2)cc2n1C[C@H]1CCCCN21 [Example E52]	≤ 0.1 µM
O=c1nc(OCc2cc(F)c(OC3CCCC(F)(F)C3)c(F)c2)cc2n1C[C@@H]1CCCN21 (some centres unmarked) [Example E93]	≤ 10 µM
N#Cc1cc(COc2cc3n(c(=O)n2)CC2CCCCN32)ccc1Oc1cncc(C(F)(F)F)c1 (centres unmarked) [Example E10]	≤ 0.1 µM
N#Cc1cc(COc2cc3n(c(=O)n2)CC2CCCCN32)ccc1Oc1cccc(C(F)(F)F)c1 (centres unmarked) [Example E12]	≤ 0.1 µM

Where these numbers come from: patent US11999746B2
